Source listed as paper PMC5706701.

Provide the reported Raw Signal of each item.
- System name: Human IP6K1 (Homo sapiens)
- Construct: GST (N, cleaved yes); made in house; host or cells: C43 E. coli, pGEX-6P-2
- Sequence (Q92551 whole entry): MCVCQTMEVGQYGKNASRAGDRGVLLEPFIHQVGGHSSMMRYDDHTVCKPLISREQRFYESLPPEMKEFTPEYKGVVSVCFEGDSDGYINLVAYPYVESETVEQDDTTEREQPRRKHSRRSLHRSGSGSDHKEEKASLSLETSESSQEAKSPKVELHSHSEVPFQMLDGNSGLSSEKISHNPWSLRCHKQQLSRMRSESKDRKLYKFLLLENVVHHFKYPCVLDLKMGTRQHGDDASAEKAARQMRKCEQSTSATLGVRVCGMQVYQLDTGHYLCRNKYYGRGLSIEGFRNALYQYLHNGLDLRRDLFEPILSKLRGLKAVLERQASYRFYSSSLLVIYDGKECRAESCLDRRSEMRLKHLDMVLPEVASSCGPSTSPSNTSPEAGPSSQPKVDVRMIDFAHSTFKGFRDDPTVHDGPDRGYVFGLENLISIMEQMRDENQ
- Test name: IP6K1 high-throughput screen of the Sigma LOPAC (ADP-Glo Max, single point);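 further: final compound concentration 10µM in 5% DMSO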
- Assay type: biochemical
- Study conditions: LOPAC single-point screen, ADP-Glo Max raw signal per well
Answers are plain numbers.

Solved entries (count: 3):
{"Molecule": "COc1ccc2[nH]c(I)c(CCNC(C)=O)c2c1", "Raw Signal": 55940}
{"Molecule": "COc1cc(C[C@@H](C)N)c(OC)cc1I.Cl [( R)-(-)-DOI hydrochloride]", "Raw Signal": 54807}
{"Molecule": "Ic1ccccc1CNC1C2CCN(CC2)C1C(c1ccccc1)c1ccccc1.O=C(O)C(=O)O [L-703,606 oxalate]", "Raw Signal": 52840}

I need Raw Signal for every entry listed below, if you could help.
1. CCn1nc(C(=O)O)c(=O)c2cc3c(cc21)OCO3
2. CC(=N)NCCC[C@H](N)C(=O)O.Cl

[58068, 54044]
